The following molecules are listed with their measured activity at 1 µM values.
# assayed target: Recombinant GST-TAG-MASTL (Homo sapiens, UniProt Q96GX5)
# Construct: GST; purchased Thermo Fisher Scientific
# Sequence (Q96GX5 whole entry): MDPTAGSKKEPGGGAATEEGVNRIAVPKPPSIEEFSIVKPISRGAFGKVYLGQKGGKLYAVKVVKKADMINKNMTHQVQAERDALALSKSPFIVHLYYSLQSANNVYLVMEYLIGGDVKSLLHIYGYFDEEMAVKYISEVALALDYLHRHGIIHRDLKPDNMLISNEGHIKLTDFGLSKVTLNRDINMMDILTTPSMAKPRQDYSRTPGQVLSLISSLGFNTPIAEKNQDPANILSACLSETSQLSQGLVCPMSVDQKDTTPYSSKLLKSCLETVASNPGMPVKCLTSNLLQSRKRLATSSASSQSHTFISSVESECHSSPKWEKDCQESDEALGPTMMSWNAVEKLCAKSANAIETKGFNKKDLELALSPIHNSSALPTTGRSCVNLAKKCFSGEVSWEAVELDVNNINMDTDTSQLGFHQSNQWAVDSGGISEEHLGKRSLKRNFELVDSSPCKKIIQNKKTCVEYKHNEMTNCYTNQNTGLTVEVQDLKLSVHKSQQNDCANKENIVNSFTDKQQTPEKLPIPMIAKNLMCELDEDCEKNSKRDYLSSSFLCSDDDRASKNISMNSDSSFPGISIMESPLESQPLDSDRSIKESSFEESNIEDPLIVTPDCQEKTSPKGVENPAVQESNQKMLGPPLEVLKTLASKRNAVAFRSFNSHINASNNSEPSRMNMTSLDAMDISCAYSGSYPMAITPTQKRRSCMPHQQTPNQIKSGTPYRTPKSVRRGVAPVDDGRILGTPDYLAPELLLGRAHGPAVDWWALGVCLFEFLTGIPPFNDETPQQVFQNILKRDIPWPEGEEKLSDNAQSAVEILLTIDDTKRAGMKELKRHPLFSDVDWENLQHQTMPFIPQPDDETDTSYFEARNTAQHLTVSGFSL
# procedure summary: HTRF-based kinase assay (HTRF KinEASE assay kit)
# Assay type: biochemical
# assay setup: compound 1 µM; read-out: MASTL activity (%) HTRF (1 µM)
assay endpoint: activity at 1 µM (%)

>>> reported("CC(C)C(=O)N1CC=C(c2nc(Nc3cc(C4CC4)[nH]n3)c3ccccc3n2)CC1 [compound 9b]")
21.7
>>> reported("Cc1ccc(C2=CCN(c3nc(Nc4cc(C5CC5)[nH]n4)c4ccccc4n3)CC2)c(C)c1 [compound 6j]")
80
>>> reported("FC(F)(F)c1cccc(C2=CCN(c3nc(Nc4cc(C5CC5)[nH]n4)c4ccccc4n3)CC2)c1 [compound 6g]")
41.4
>>> reported("O=C(c1ccccc1)N1CC2CC1CN2c1nc(Nc2cn[nH]c2)c2ccccc2n1 (centres unmarked) [compound 28d]")
119
>>> reported("O=S(=O)(c1cccc2cccnc12)N1CC2CC1CN2c1nc(Nc2cc(C3CC3)[nH]n2)c2ccccc2n1 (centres unmarked) [compound 15z]")
105
>>> reported("CC(C)(C)OC(=O)N1CC=C(c2nc(Nc3cc(C4CC4)[nH]n3)c3ccccc3n2)CC1 [compound 7]")
31
>>> reported("N#CCc1ccc(Nc2nc(Nc3cccc(N)c3)c3ccccc3n2)cc1 [compound 3n]")
125
>>> reported("O=C(O)Cc1ccc(Nc2nc(Nc3cc(C4CC4)[nH]n3)c3ccccc3n2)cc1 [compound 4s]")
56.2
